- method-notes: Mouse Pharmacokinetic Study (Example 1C)
- Format: in vivo
- condition-details: mouse; CD-1 mice, iv, 3 mg/kg; plasma
experimental-readout: clearance

>>> result("O=C(c1cnn2c(NCCc3c[nH]c4ccccc34)cc(-c3cncc(F)c3)nc12)N1CCOCC1 [I-65]")
"93.1 mL/min/kg"
>>> result("CC(C)c1cnn2c(N[C@H]3CCc4[nH]ccc4C3)nc(-c3cncc(F)c3)nc12 [I-137a]")
"25 mL/min/kg"
>>> result("N#Cc1cnn2c(N[C@@H]3CCc4[nH]c5ccccc5c4C3)nc(-c3cncc(F)c3)nc12 [I-130]")
"39 mL/min/kg"
>>> result("CC(C)c1cnn2c(NCCc3c[nH]c4ccccc34)cc(-c3cncc(F)c3)nc12 [I-2]")
"82 mL/min/kg"
>>> result("Cc1cnn2c(NCCc3c[nH]c4ccccc34)cc(-c3cncc(F)c3)nc12 [I-70]")
"54.9 mL/min/kg"
>>> result("CN(C)c1cnn2c(N[C@@H]3CCc4[nH]c5ccccc5c4C3)nc(-c3cncc(F)c3)nc12 [I-129]")
"31 mL/min/kg"
>>> result("Fc1cncc(-c2cc(NCCc3c[nH]c4ccccc34)n3ncc(Br)c3n2)c1 [I-39]")
"53.7 mL/min/kg"
>>> result("Cc1cnn2c(N[C@@H]3CCc4[nH]c5ccccc5c4C3)nc(-c3cncc(F)c3)nc12 [I-201]")
"37.5 mL/min/kg"
